Recorded values, source patent US9284333B2.

# tested.target: Human TASK-1 channels (Homo sapiens (Human), UniProt O14649)
# Sequence (O14649 whole entry): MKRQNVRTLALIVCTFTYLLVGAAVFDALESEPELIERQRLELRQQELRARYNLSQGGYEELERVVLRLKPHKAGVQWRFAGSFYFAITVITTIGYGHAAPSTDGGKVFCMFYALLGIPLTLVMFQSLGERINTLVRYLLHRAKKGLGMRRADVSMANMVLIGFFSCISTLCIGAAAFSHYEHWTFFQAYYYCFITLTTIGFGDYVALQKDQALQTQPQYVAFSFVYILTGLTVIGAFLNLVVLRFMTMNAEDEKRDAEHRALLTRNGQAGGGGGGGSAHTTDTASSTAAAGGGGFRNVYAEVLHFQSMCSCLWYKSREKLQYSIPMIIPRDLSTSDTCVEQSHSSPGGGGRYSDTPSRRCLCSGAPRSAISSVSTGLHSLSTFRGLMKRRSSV
# protocol.description: Determination of the activity on the TASK-1 channel in Xenopus oocytes (two-microelectrode voltage clamp)
# Type: cell-based
# reported.conditions: human TASK-1 expressed in Xenopus oocytes, room temperature; read-out: IC50 value for TASK-1 inhibition
# Protocol: Determination of the activity on the TASK-1 channel in Xenopus oocytes Human TASK-1 channels were expressed in Xenopus oocytes. For this purpose, oocytes were isolated from Xenopus laevis and defoliculated. […] After two days of TASK-1 protein expression, TASK-1 currents were measured by two-microelectrode voltage clamp. […] Oocytes were clamped to −90 mV and TASK-1 mediated currents were measured during 500 ms voltage pulses to 40 mV. […]
value.kind: log10 of IC50 (log10 of the value in nM)
log10 IC50, nM

INSERT INTO results (compound, tested_target, recorded_measurement) VALUES
  ('CC(C)[C@@H](NC(=O)c1cc(C(=O)N2CCC[C@@H]2C)n2c1COCC2)c1ccc(F)cc1 [16p]', 'Human TASK-1 channels (Homo sapiens (Human), UniProt O14649)', 2.58),
  ('CC[C@@H](NC(=O)c1cc(C(=O)NCC2CC2)n2c1CCCC2)c1ccccc1 [16mf]', 'Human TASK-1 channels (Homo sapiens (Human), UniProt O14649)', 2.41);

Problem: Any idea what its log10 of IC50 is? The compound is CC[C@@H]1CCCN1C(=O)c1cc(C(=O)N[C@H](CC)c2ccccc2)c2n1CCOC2 (racemic) [16fd]
Solution: 2.86

Problem: Then what about the compound CC[C@@H](NC(=O)c1cc(C(=O)NC2CCCc3nccnc32)n2c1COCC2)c1ccccc1 (stereo partly shown) [16io] ?
Solution: 2.97

Problem: Let us now turn to O=C(N[C@H](c1ccc(F)cc1)C1CC1)c1cc(C(=O)N2CCCC2)n2c1COCC2 [16dh]
Solution: 2.46

Problem: Thanks! And CC[C@@H](NC(=O)c1cc(C(=O)NC(C)C)n2c1COCC2)c1ccccc1 [16ge] ?
Solution: 2.84

Problem: Next up: CC[C@@H](NC(=O)c1cc(C(=O)N2CCC[C@@H]2C)n2c1COCC2)c1ccc(F)cc1 [16az]
Solution: 2.08

Problem: What do you get for CC[C@H](NC(=O)c1cc(C(=O)N[C@H](C)c2ccc(F)cc2)c2n1CCOC2)c1ccccc1 [16jp] ?
Solution: 2.34

Problem: Entry CC[C@@H](NC(=O)c1cc(C(=O)N[C@@H](C)c2ccc(F)cc2)n2c1COCC2)c1ccccc1 [16ht] please
Solution: 1.85

Problem: Item: CC[C@@H](NC(=O)c1cc(C(=O)N2CCC[C@@H]2C)c2n1CCOC2)c1ccccc1 [16ki]
Solution: 2.30

---

# tested.target: UniProtKB O14649
# protocol.description: Determination of the activity on the TASK-1 channel in Xenopus oocytes (two-microelectrode voltage clamp)
# Type: cell-based
# reported.conditions: compound concentration 5 μM
Reported values of inhibition at 5 µM for individual entries
The figure you give is taken to be in %; do not add the unit.

Problem: Data request, read-out inhibition at 5 µM, for CC[C@@H](NC(=O)c1cc(C(=O)NCc2ccc(OC)nc2)n2c1COCC2)c1ccccc1 [16jg]
Solution: 80

Problem: Follow-up entry: CC[C@H](NC(=O)c1cc(C(=O)N2CCC[C@@H]2C)n2c1COCC2)c1cnc(C(F)(F)F)cc1Cl [16bs]
Solution: 80

Problem: Also check C[C@H]1CCCN1C(=O)c1cc(C(=O)NCc2ccccc2Cl)c2n1CCOC2 [16an]
Solution: 81

---

# tested.target: UniProtKB O14649
# protocol.description: Determination of the activity on the TASK-1 channel in Xenopus oocytes (two-microelectrode voltage clamp)
# reported.conditions: human TASK-1 expressed in Xenopus oocytes, room temperature; read-out: IC50 value for TASK-1 inhibition
pIC50: −log10 of the molar value.
Measured pIC50 determines class: bucket A (below 6), bucket B (6 to below 7), bucket C (7 or more)

Past entries and their recorded results:
INSERT INTO results (compound, class_name) VALUES
  ('CC[C@@H](NC(=O)c1c(C)c(C(=O)N2CCC[C@@H]2C)n2c1COCC2)c1ccc(C(F)(F)F)nc1 [16rx]', 'bucket A'),
  ('CC[C@H](NC(=O)c1cc(C(=O)N[C@H](CC)c2ccccc2)c2n1CCCC2)c1ccccc1 [16mb]', 'bucket C'),
  ('CC[C@@H](NC(=O)c1cc(C(=O)NCCOC)n2c1COCC2)c1ccccc1 [16gh]', 'bucket A'),
  ('CC[C@@H](NC(=O)c1cc(C(=O)N2CCC[C@@H]2C)c2n1CCOC2)c1ccc(C#N)nc1 [16nj]', 'bucket A'),
  ('CCC(NC(=O)c1cc(C(=O)N[C@H](CC)c2ccccc2)c2n1CCOC2)c1cccc(S(N)(=O)=O)c1 (some centres unmarked) [16ji]', 'bucket A');

Problem: Form field 'band' for O=C(NC(CC(F)(F)F)c1ccccc1)c1cc(C(=O)N2CCCC2)n2c1COCC2 (centres unmarked) [16dj]
Solution: bucket A

Problem: Now consider CC[C@@H](NC(=O)c1cc(C(=O)N2CCC[C@H]2C)n2c1COCC2)c1ccccc1 [16ej] and answer again.
Solution: bucket B

---

# tested.target: Human TASK-1 channels (Homo sapiens (Human))
# protocol.description: Determination of the activity on the TASK-1 channel in Xenopus oocytes (two-microelectrode voltage clamp)
# reported.conditions: human TASK-1 expressed in Xenopus oocytes, room temperature; read-out: IC50 value for TASK-1 inhibition
Documented IC50 across a set of molecules
Kindly provide the numeric value in µM only, without the unit symbol.

Worked examples, 3 molecules total:
INSERT INTO results (molecule, value_kind, measurement_units, recorded_measurement) VALUES
  ('CC[C@@H](NC(=O)c1cc(C(=O)N2CCC[C@@H]2COC)n2c1COCC2)c1ccccc1 [16eo]', 'IC50', 'µM', 0.38),
  ('CC[C@@H](NC(=O)c1cc(C(=O)N2CCC[C@@H]2C)n2c1COCC2)c1ccc(C(F)(F)F)c(F)c1 [16bm]', 'IC50', 'µM', 0.093),
  ('CC[C@@H](NC(=O)c1cc(C(=O)N2CCC[C@@H]2C)n2c1COCC2)c1ccc(C#N)nc1 [16aa]', 'IC50', 'µM', 2.4);

Let's switch to this molecule now.
Problem: Please look up its IC50: CC[C@@H](NC(=O)c1cc(C(=O)N(C)[C@@H](C)C(=O)NC(C)C)n2c1COCC2)c1ccccc1 [16rl]
Solution: 4.5

---

The compounds listed here are annotated with their inhibition at 5 µM.
# tested.target: Human TASK-1 channels (Homo sapiens (Human))
# protocol.description: Determination of the activity on the TASK-1 channel in Xenopus oocytes (two-microelectrode voltage clamp)
# Format: cell-based
# reported.conditions: compound concentration 5 μM
Report the value in % with no unit label.

Answered cases to consult:
INSERT INTO results (compound, value_kind, measurement_units, recorded_measurement) VALUES
  ('C[C@H]1CCCN1C(=O)c1cc(C(=O)NCc2c(Cl)cccc2Cl)c2n1CCOC2 [16ag]', 'inhibition at 5 µM', '%', 84),
  ('CC[C@@H](NC(=O)c1cc(C(=O)N2CCC[C@@H]2C)c2n1CCOC2)c1ccc(C(F)(F)F)nc1 [16nk]', 'inhibition at 5 µM', '%', 62);

Problem: Give inhibition at 5 µM (Human TASK-1 channels (Homo sapiens (Human))) of the following compound: CC[C@H](NC(=O)c1cc(C(=O)N2CCC[C@@H]2C)n2c1COCC2)c1c(F)cc(C(F)(F)F)cc1F [16cm]
Solution: 85

Problem: Queued: CC[C@@H](NC(=O)c1cc(C(=O)N2CCC[C@@H]2C)n2c1COCC2)c1ccc(SC)nc1 [16ra]
Solution: 60

Problem: Repeat with CC(c1ncccn1)N(CC1CC1)C(=O)c1cc(C(=O)N[C@H](C)c2ccc(F)cc2)n2c1COCC2 (some centres unmarked) [16ea]
Solution: 72

---

# tested.target: Human TASK-1 channels (Homo sapiens (Human))
# protocol.description: Determination of the activity on the TASK-1 channel in Xenopus oocytes (two-microelectrode voltage clamp)
# Format: cell-based
# reported.conditions: human TASK-1 expressed in Xenopus oocytes, room temperature; read-out: IC50 value for TASK-1 inhibition
value.kind: IC50 (nM)
Quick reminder: number only, in nM, skip the unit.

// known answers, use as guide
INSERT INTO measurements (molecule, recorded_measurement) VALUES
  ('CC[C@@H](NC(=O)c1cc(C(=O)N2CCCC2)n2c1COCC2)c1ccccc1 [16cx]', 74),
  ('CC[C@@H](NC(=O)c1cc(C(=O)N[C@H](CC)c2ncccn2)c2n1CCOC2)c1ccc(C(F)(F)F)cc1 [16lb]', 65);

// below: IC50 requested for another molecule
Problem: What does the record list as IC50 for CC[C@@H](NC(=O)c1cc(C(=O)N2CCC[C@@H]2COC)c2n1CCOC2)c1ccccc1 [16kk] ?
Solution: 130
